biological target: human Nav1.7 (Homo sapiens, UniProt Q15858); experiment: FLIPR or FLIPR TETRA sodium dye assay with KCl and test article pre-incubation (CoroNa Green, veratridine + scorpion venom); format: cell-based; conditions: recombinant human Nav1.7 in HEK293 cells
Sequence (Q15858 1-1977 isoform Q15858-3): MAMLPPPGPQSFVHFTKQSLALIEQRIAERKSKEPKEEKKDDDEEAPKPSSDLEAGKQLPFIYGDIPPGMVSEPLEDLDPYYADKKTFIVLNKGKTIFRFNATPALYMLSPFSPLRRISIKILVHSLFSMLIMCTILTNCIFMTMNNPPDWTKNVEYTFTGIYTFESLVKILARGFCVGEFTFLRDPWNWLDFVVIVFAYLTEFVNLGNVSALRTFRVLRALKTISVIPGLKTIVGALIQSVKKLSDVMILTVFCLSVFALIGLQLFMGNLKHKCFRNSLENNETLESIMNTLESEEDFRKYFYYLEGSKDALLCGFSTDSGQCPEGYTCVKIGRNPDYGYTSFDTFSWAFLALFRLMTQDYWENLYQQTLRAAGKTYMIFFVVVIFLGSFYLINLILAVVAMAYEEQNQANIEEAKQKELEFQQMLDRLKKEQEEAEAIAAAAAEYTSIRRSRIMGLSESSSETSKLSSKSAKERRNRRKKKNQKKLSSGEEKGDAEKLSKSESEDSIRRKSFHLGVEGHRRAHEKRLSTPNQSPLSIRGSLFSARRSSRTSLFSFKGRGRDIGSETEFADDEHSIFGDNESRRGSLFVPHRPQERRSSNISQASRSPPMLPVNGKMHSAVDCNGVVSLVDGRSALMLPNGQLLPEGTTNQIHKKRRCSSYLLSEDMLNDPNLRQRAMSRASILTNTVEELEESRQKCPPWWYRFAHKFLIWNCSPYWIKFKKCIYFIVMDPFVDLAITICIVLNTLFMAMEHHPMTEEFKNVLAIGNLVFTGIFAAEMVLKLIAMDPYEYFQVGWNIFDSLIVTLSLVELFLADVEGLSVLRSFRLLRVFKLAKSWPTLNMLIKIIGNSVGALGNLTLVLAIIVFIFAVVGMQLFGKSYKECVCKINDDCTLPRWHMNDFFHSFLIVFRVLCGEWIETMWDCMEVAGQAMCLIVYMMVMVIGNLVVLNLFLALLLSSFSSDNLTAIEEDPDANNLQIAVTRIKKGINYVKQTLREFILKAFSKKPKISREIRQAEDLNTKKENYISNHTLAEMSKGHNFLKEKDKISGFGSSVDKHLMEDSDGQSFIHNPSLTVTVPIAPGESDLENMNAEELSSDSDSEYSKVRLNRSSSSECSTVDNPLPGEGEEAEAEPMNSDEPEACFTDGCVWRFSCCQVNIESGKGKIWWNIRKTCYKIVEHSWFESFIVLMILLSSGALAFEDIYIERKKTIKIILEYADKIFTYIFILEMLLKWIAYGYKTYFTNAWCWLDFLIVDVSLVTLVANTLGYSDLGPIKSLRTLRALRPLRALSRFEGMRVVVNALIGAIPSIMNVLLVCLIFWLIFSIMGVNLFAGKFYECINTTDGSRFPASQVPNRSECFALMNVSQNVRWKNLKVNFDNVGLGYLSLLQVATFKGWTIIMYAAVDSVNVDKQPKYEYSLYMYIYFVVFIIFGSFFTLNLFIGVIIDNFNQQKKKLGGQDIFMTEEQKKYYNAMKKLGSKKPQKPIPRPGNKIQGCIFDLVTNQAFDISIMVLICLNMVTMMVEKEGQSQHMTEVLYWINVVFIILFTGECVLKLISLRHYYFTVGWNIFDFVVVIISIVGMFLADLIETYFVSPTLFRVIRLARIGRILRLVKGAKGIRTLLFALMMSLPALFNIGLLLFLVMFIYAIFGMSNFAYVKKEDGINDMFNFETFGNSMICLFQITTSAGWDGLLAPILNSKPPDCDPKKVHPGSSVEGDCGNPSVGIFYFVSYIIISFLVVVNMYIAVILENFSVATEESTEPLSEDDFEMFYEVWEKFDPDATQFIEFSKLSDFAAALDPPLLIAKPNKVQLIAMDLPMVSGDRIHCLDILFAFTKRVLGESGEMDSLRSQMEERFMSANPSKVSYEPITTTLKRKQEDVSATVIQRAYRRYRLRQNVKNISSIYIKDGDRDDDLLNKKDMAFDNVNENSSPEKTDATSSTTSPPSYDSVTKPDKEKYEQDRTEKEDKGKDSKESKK
Mark label 1 for IC50 under 1 µM, label 0 if at or over.

* OC[C@@H](O)c1cccc(-c2ccc3c(c2)CCCCN3C2CCOCC2)n1 | label 0
* OC[C@@H](O)c1cccc(-c2ccc3c(c2)COCCN3c2ccc(C(F)(F)F)cc2)n1 | label 1
* C[C@H](Nc1cc(C(N)=O)nc(-c2ccc3c(c2)OCCC3Cc2ccc(F)cc2)n1)C(N)=O (stereo partly drawn) | label 0
* C[C@H](Nc1cc(C(N)=O)nc(-c2ccc3c(c2)CCCCN3c2ccc(C(F)(F)F)cc2)n1)C(N)=O | label 0
* N#CCN1CCN(c2ccc(C(F)(F)F)cc2)c2ccc(-c3cccc([C@H](O)CO)n3)cc2C1 | label 1

Data request: Determine whether this compound shows IC50 lower than 1 µM (ties excluded): `CN1CCN(c2ccc(C(F)(F)F)cc2)c2ccc(-c3cccc(C(N)=O)n3)cc2C1`
Data returned: label 1

Data request: Problem: For the compound `CCN(CC)C(=O)N1CCN(c2ccc(C(F)(F)F)cc2)c2ccc(-c3cccc(C(N)=O)n3)cc2C1` , is IC50 under 1 µM?
Data returned: label 1

Data request: For C[C@H](Nc1cc(C(N)=O)nc(-c2ccc3c(c2)OCCC3c2ccc(C(F)(F)F)cc2)n1)C(N)=O (stereo partly drawn) , is the recorded IC50 below the cut-off of 1 µM?
Data returned: label 1

Data request: Hello, I'm reviewing records and need to know if IC50 of `OC[C@@H](O)c1cccc(-c2ccc3c(c2)CCCCN3C2CCC(F)(F)CC2)n1` is below 1 µM. Could you check?
Data returned: label 1

Data request: Threshold test, IC50 < 1 µM: NC(=O)c1cccc(-c2ccc3c(c2)CN(CC(O)CO)CCN3c2ccc(C(F)(F)F)cc2)n1 (stereo not drawn)
Data returned: label 0

Data request: Please indicate whether the reported IC50 of `OC[C@@H](O)c1cccc(-c2ccc3c(c2)CCCN3Cc2ccc(C(F)(F)F)cc2)n1` is strictly below 1 µM.
Data returned: label 1

Data request: Consider `CCNC(=O)N1CCN(c2ccc(C(F)(F)F)cc2)c2ccc(-c3cccc([C@H](O)CO)n3)cc2C1` . Does its IC50 lie strictly below 1 µM?
Data returned: label 0

Data request: Regarding `C[C@H](Nc1cc(C(N)=O)nc(-c2ccc3c(c2)CN(CC2CC2)CCN3c2ccc(C(F)(F)F)cc2)n1)C(N)=O` , kindly confirm whether its IC50 is beneath 1 µM.
Data returned: label 0
